Experiment: Stability assay: residual activity after incubation with 1 mM inhibitor, measured by pNA assay
Type: physicochemical
Set-up: key: fraction of activity at 0 h incubation (0.80 = 80%)
Conditions: incubation time 116.0 hours; 1 mM Cu2+; 25° C., pH 7, 0.1% K-sorbate; relative to 0 hours
endpointName: Residual Enzyme Activity
Format: numeric value only, no unit, no commentary.

Consider the molecule shown here: Protease 11: protease from Nocardiopsis prasina DSM 15648, amino acids 1-188 of SEQ ID NO: 6 (protein, listed as Nocardiopsis prasina) ATGPLPQSPTPEADAVSMQEALQRDLGLTPLEADELLAAQDTAFEVDEAAAAAAGDAYGGSVFDTETLELTVLVTDAASVEAVEATGAGTELVSYGIEGLDEIIQDLNAADAVPGVVGWYPDVAGDTVVLEVLEGSGADVSGLLADAGVDASAVEVTSSAQPELYADIIGGLAYTMGGRCSVGFAATN What is its recorded Residual Enzyme Activity?
0.737

GET /values?readout=Residual Enzyme Activity&item= Protease 35: protease from Nocardiopsis prasina DSM 15649, amino acids 1-188 of SEQ ID NO: 8 (protein, listed as Nocardiopsis prasina) ATGPLPQSPTPEADAVSMQEALQRDLGLTPLEADELLAAQDTAFEVDEAAAEAAGDAYGGSVFDTETLELTVLVTDSAAVEAVEATGAGTELVSYGITGLDEIVEELNAADAVPGVVGWYPDVAGDTVVLEVLEGSGADVGGLLADAGVDASAVEVTTTEQPELYADIIGGLAYTMGGRCSVGFAATN
0.807
